In this section, each of the compounds is paired with its reported GI50.
- Tested on: SK-MEL-2
- Experimental Details: Antiproliferative activity against human SK-MEL-2 cells assessed as inhibition of cell growth measured after 48 hrs by SRB assay
- Format: functional
- Particulars: SK-MEL-2, 48 h
Parameter: GI50 (nM)

> print(dat)
                                   compound  measurement.unit  number
1  O=C1CC(c2ccccc2)Cc2nc3c(Br)cc(Br)cc3cc21 (stereo not given)                nM    49.2
2  COc1ccc2nc3c(cc2c1)C(=O)CC(C(F)(F)F)C3 (stereo not given)                nM     802
3  O=C1CC(c2ccccc2)Cc2nc3ccc(Br)cc3cc21 (stereo not given)                nM     238
4  COc1ccc2nc3c(cc2c1)C(=O)CC(c1ccccc1)C3 (stereo not given)                nM     777
5  O=C1CC(c2ccccc2)Cc2nc3ccc(Cl)cc3cc21 (stereo not given)                nM     320
